System: DMPK
Assay Comment: DMPK knockdown by transfected antisense oligonucleotides in DM1 C15 myotubes at 0.5 nM and 50 nM
Assay type: cell-based
Measurement Parameters: 50 nM oligonucleotide, 72 hours, qPCR, relative to vehicle control
Test Readout: Percent DMPK Reduction

Before answering, review these 5 worked examples.
# Substance, Test Readout, Result
records = [
    ("290 (GGCCAUGACAAUCUCCGCCA; chemistry not given here) [compound 290]", "Percent DMPK Reduction", "75.00%"),
    ("295 (CCUUGUAGUGGACGAUCUUG; chemistry not given here) [compound 295]", "Percent DMPK Reduction", "65.91%"),
    ("297 (CUCAGGCUCUGCCGGGUGAG; chemistry not given here) [compound 297]", "Percent DMPK Reduction", "63.07%"),
    ("358 (GUGUCCGGAAGUCGCCUGCU; chemistry not given here) [compound 358]", "Percent DMPK Reduction", "73.65%"),
    ("346 (GACAGAACAACGGCGAACAG; chemistry not given here) [compound 346]", "Percent DMPK Reduction", "70.49%"),
]

Req: Fill in: Percent DMPK Reduction of 317 (AUCCGCUCCUGCAACUGCCG; chemistry not given here) [compound 317] is ___
Resp: 40.06%

Req: Fill in: Percent DMPK Reduction of 272 (CUCUGCCGCAGGGACAGCCG; chemistry not given here) [compound 272] is ___
Resp: 93.59%

Req: Fill in: Percent DMPK Reduction of 322 (GCUCAGGCUCUGCCGGGUGA; chemistry not given here) [compound 322] is ___
Resp: 60.71%
